Data provenance is patent US20240246980A1.

- test system: human MRGPRD (Homo sapiens, UniProt Q8TDS7)
- Sequence (Q8TDS7 whole entry): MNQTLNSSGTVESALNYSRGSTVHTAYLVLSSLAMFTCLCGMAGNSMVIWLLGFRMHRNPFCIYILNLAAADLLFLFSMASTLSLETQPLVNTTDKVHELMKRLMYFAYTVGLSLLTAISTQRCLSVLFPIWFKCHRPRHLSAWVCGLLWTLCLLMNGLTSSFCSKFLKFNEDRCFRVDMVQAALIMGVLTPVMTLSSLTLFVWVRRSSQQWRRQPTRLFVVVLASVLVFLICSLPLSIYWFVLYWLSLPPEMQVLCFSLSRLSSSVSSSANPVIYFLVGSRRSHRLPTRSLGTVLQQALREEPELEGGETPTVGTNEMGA
- test details: MRGPRD antagonist activity, IP-One HTRF assay in CHO cells stably expressing human MRGPRD (versus 100 μM β-Alanine agonist)
- Experimental: Chinese Hamster Ovary (CHO) cells stably expressing human MRGPRD (Eurofins, San Diego CA) were plated in a 384-well plate at 20,000 cells per well in 12 μL of Optimem (Fisher Scientific 11-058-021). Plates were kept in the incubator at 37° C. overnight. […] Assay plates were read on either a Molecular Devices SpectraMax iD5 plate reader or a BMG ClarioStar plate reader. The HTRF ratio was calculated form the raw data and graphed using GraphPad Prism to calculate IC50 values. […]
I'd be grateful if you could share measured IC50 for these entries.

Report IC50 for COc1cccc(-c2nc(C3CCCN(C(=O)N(C)c4cccc(F)c4)C3)n3ccccc23)c1 (stereo not drawn) please.
500 to 1000 nM

Report IC50 for COc1cccc(-c2nc([C@@H]3CCCN3C(=O)Nc3ccc(N(C)C)cc3)n3ccccc23)c1 please.
> 3000 nM

Report IC50 for COc1cccc(C(=O)N2CCCC(c3nc(-c4cccc(OC)c4)c4cccc(OC)n34)C2)c1 (stereo not drawn) please.
> 3000 nM

Report IC50 for CCNC(=O)N1CCCC(c2nc(-c3cccc(OC)c3)c3ccccn23)C1 (stereo not drawn) please.
100 to 500 nM

Report IC50 for COc1cccc(-c2nc(C3CCCN(C(=O)c4ccc(C)cc4F)C3)n3ccccc23)c1 (stereo not drawn) please.
500 to 1000 nM

Report IC50 for COc1cccc(-c2nc([C@@H]3CCCN(C(=O)Nc4cccc(-c5csc(C)n5)c4)C3)n3ccccc23)c1 please.
< 100 nM

Report IC50 for COc1ccc(CNC(=O)N2CCC[C@@H](c3nc(-c4cccc(OC)c4)c4ccccn34)C2)cc1 please.
< 100 nM

Report IC50 for COc1cccc(-c2nc([C@@H]3CCCN(C(=O)Nc4ccc(C(=O)N(C)C)cc4)C3)n3ccccc23)c1 please.
< 100 nM

Report IC50 for Cc1noc(C)c1-c1nc([C@@H]2CCCN(C(=O)Nc3ccc(N(C)C)cc3)C2)n2ccccc12 please.
500 to 1000 nM

Report IC50 for COc1cccc(-c2nc(C3CN(C(=O)Nc4cccc(N(C)C)c4)C3)n3ccccc23)c1 please.
> 3000 nM

Report IC50 for COc1cccc(-c2nc(C3CCCN(C(=O)Nc4ccccc4)C3)n3ccccc23)c1 (stereo not drawn) please.
100 to 500 nM

Report IC50 for COc1cccc(-c2nc([C@@H]3CCCN(C(=O)Nc4cnc(C)nc4)C3)n3ccccc23)c1 please.
< 100 nM

Report IC50 for CC(C)Cn1nc(C(F)(F)F)cc1-c1nc([C@@H]2CCCN(C(=O)Nc3ccc(N(C)C)cc3)C2)n2ccccc12 please.
500 to 1000 nM

Report IC50 for COc1cccc(-c2nn([C@H]3CCCN(C(=O)Nc4cccc(N(C)C)c4)C3)c3ncccc23)c1 please.
1000 to 3000 nM

Report IC50 for CN(C)c1ccc(NC(=O)N2CCC[C@@H](c3nc(-c4cccc5c4CCC5)c4ccccn34)C2)cc1 please.
< 100 nM
